# credit: a melting point compilation (Tetko et al.; mined from patent text by program, amines drawn as free bases though some values may be those of a salt)

Entries annotated with measured melting point

CCOC(=O)Nc1[nH]c2ccc(Sc3ccccc3)cc2c1C#N: 181 to 182 °C
COCCOc1c(F)c(Oc2ccc(S(C)(=O)=O)nc2)cc2cc(C3=NCC(CCO)S3)[nH]c12 (stereo not given): 160 to 161 °C
NC(=O)c1ncn2c(-c3cccnc3)ccnc12: > 260 °C
CN(C(=O)C(Br)OC(N)=O)c1ccccc1 (stereo not given): 136 to 138 °C
O=S(=O)(O)c1ccc2c(c1)CNC(C(Cl)(Cl)Cl)O2 (stereo not given): > 260 °C

State its melting point: `Clc1cnc(Oc2cccc(Oc3ncc(Cl)cn3)c2)nc1`
120 °C

State its melting point: `CCCc1c(C(C)=NO)c2ccc(C(N)=O)cc2n1Cc1ccccc1Cl`
212 to 216 °C

State its melting point: O=C1c2ccccc2NC(c2ccc(=O)[nH]c2)N1c1ccc(F)c(C(F)(F)F)c1 (stereo not given)
260 to 261 °C

State its melting point: C=C1CCC2(Cc3ccccc3)C3Cc4ccc(O)cc4C2(CCN3CC2CC2)C1 (stereo not given)
212 °C

State its melting point: CC(Sc1nnnn1-c1ccccc1)C(=C(C#N)C#N)c1ccccc1 (stereo not given)
145 to 146 °C

State its melting point: `COC(=O)Cn1c(C(=O)NC(N)=S)cc2cc(OC)ccc21`
202 to 206 °C

State its melting point: `COC(=O)C(C)(C)OCc1cc2cc(C(F)(F)F)ccc2n1S(=O)(=O)c1cccc2nc(C)sc12`
118 to 120 °C

----------
Measurement name: melting point

O=Cc1cc(CSc2c(Cl)cccc2Cl)ccc1O: 114 to 117 °C

State its melting point: `CCCc1nc2c(N)nc3ccccc3c2n1CCCCC(=O)N1CCOCC1`
178 to 179 °C

----------
Entries annotated with measured melting point

COc1ccc2c(O)cc(=O)oc2c1C: 195 to 197 °C
COc1cc2c(cc1OC)-c1cc(OC)c(OC)cc1C1CN3C(=O)CCC3C=C21 (stereo not given): 252 to 254 °C
CN(C(=O)Nc1ccc(F)cc1F)c1cnc2ccc(Cl)cc2c1-c1ccccc1: 200 to 201 °C
CCCCCCCCCCOc1ccc2cc(C#CC(C)O)ccc2c1 (stereo not given): 74 to 75 °C
O=C1CC(c2ccccc2)Cc2[nH]ccc(=O)c21 (stereo not given): 207 to 209 °C

State its melting point: `CCOC(=O)c1ccc(C(=O)Nc2ccc3c(c2)CCCC(=O)N3C)cc1`
184 to 185 °C

State its melting point: `CCOC(=O)C(OCOc1ccc(-c2ccc(Cl)cc2)cc1)(C(F)(F)F)C(F)(F)F`
42 to 43 °C

----------
Measurement name: melting point

CC1C=C(c2cccc(C(F)(F)F)c2)n2ncc(C#N)c2N1C(=O)CCl (stereo not given): 160 to 163 °C

State its melting point: CN(C)C1(c2ccccc2)CCC(CNC(=O)N2CCC(c3c[nH]c4ccccc34)CC2)CC1 (stereo not given)
104 to 107 °C

State its melting point: `CC(=O)Nc1ccccc1S(N)(=O)=O`
154 to 156 °C

State its melting point: `COc1ccc(C)c([N+](=O)[O-])c1C`
53 to 55 °C

State its melting point: `C=CCOc1nc2c(c3ccccc13)c1cc(Cl)ccc1n2C`
147 to 148 °C

----------
Entries annotated with measured melting point

State its melting point: `CNc1ccc(CCc2ccc(OCc3ccccc3)c(OCc3ccccc3)c2)cc1`
61 to 65 °C

State its melting point: CCOC(=O)N1CCn2c(nc(-c3ccncn3)cc2=O)C(NCc2ccc(OC)cc2)C1 (racemic)
217 to 219 °C

State its melting point: CC(C)C1(CCc2ccccc2CO)CC(O)=C(Sc2sc3ccccc3c2C(C)(C)C)C(=O)O1 (stereo not given)
92 to 94 °C

State its melting point: `O=c1cnc2cc3[nH]c(-c4ccncc4)nc3cc2[nH]1`
> 320 °C

----------
Entries annotated with measured melting point

Worked examples follow.
COC(=O)c1ccc(NC(=O)[C@H](Cc2ccccc2)NC(=O)OC(C)(C)C)cc1: 173 to 175 °C
COCN1C(C)=C(C(=O)OCOC(=O)C(C)(C)C)C(c2cccc(Cl)c2Cl)C(C(=O)OCOC(=O)C(C)(C)C)=C1C: 103 to 104 °C
CCCCCCCCCCC(=O)C(=O)N[C@@H](CCCC)CCC(=O)O: 50 to 52 °C
CC(=O)OCc1nc2ccc(Oc3cc(C)c(OC(C)=O)c(C)c3C)nc2n1C: 128 to 129 °C
CCOC(=O)N1C=CC(c2c(-c3ccc(F)cc3)nc3c(C)c(C)c(Cl)nn23)C=N1 (centres undefined): 159 to 161 °C
CC(C)(N)c1cc(Cl)c(Cl)c(Cl)c1: 56 to 59 °C
CC(C)(C)OC(=O)NCCCCNOC(=O)c1ccccc1: 113 to 114 °C
CN(C(=O)c1ccc2c(c1)nc(NC(=O)c1cccs1)n2CCCOC(=O)c1cccs1)C1CCCCC1: 92 to 94 °C

Shift focus to the following entry.
State its melting point: `CCCn1nc(-c2ccc(OC)cc2)c2cccc(-c3ccc(F)cc3)c21`
110 to 111 °C

----------
Entries annotated with measured melting point

Cc1cc(-c2ccc(Cl)cc2)nc(-n2cnc(-c3ncc(S(N)(=O)=O)s3)c2)n1: 256 °C
CCCOc1ccc(C(=O)Nc2ccccc2NC(=O)c2ccc(OCCC)cc2)cc1: 195 °C
O=C(O)c1cccc(-c2cccn3cc(Cc4cccc(C(F)(F)F)c4)nc23)c1: 179 to 180 °C
CNc1nc(OC)c(C(=O)OC)cc1Br: 136 to 138 °C
O=C(CNc1ccccc1)Nc1ccc(Cl)cc1C(=O)O: 210 to 212 °C
Cc1cccc(NC(=O)C(=O)OCC#CI)c1: 170 to 172 °C

State its melting point: `OCCCc1ccc(O)cc1`
52 to 54 °C

State its melting point: OC(COc1ccc(F)cc1)CN1CCC(=C2c3ccc(F)cc3CCn3ncnc32)CC1 (stereo not given)
134 °C

State its melting point: COc1ccccc1NC(=O)NC1CC(N)(C(=O)O)C2C(C(=O)O)C12 (stereo not given)
> 250 °C

State its melting point: `CCCCCCCCCCCCCCCCNc1ccc(C(=O)NCC(=O)OCC)cc1`
97.5 to 99.5 °C

----------
Entries annotated with measured melting point

Worked examples follow.
N=C(N)Nc1nc2ccc(OCc3ccccc3)cc2[nH]1: 224 to 227 °C
CCN(C)C(=O)Nc1ccc2c(c1Cl)C(c1ccccc1F)=NCC(=O)N2C: 184 to 186 °C
CC(NC(=O)OC(C)(C)C)C(=O)NO (stereo unspecified): 74 to 76 °C
NC(=O)N1CCC(Oc2c(F)c(F)c(F)c(F)c2F)(c2ccccc2)CC1: 155 to 160 °C
OC(Cc1ccncc1)(c1ccc(F)cc1)c1ccc(F)cc1: 158 to 160 °C
CC(=O)CC1=C(O)CCCC1=O: 80 to 81 °C
COc1c(-c2cc3c(s2)CCC/C3=N\OCc2cccnc2)ccc2c(=O)c(C(=O)O)cn(C3CC3)c12: 181 to 183 °C
O=C(CCl)Nc1ccc2cc3ccc(NC(=O)CCl)cc3nc2c1: 95 to 100 °C

State its melting point: `COc1cccc(CCl)c1SCc1ccccc1`
54 °C

State its melting point: `N#Cc1cc(Cl)c(NC(=O)NC(=O)c2c(F)cccc2F)cc1Cl`
238 to 240 °C

----------
Measurement name: melting point

Worked examples follow.
COCc1cc(Oc2ccc3c(C(=O)OC)cccc3c2)ncn1: 87 to 88 °C
N#Cc1ccc2c(c1)C1(c3ccccc3-2)c2ccccc2-c2ccc(C#N)cc21: 215 to 245 °C
Cc1nc(-c2ccc3c(c2)c(-c2cc4cccnc4[nH]2)cn3C)no1: 290 to 294 °C
COc1ccc2nc(Cl)nc(Nc3ccccc3)c2c1: 177 to 179 °C

Shift focus to the following entry.
State its melting point: O=C(NC1CCC(CCN2CCN(c3nccc4c3OCC4)CC2)CC1)C1CCCOC1 (racemic)
203 °C

----------
Measurement name: melting point

COC(=O)c1ccc(CSc2c(C(N)=O)sc3ccc(OC)cc23)cc1: 150 to 152 °C

Shift focus to the following entry.
State its melting point: CC1COCc2nc3c(N)nc4ccc(OCC(=O)N5CCOCC5)cc4c3n21 (stereo not given)
226 to 228 °C

----------
Measurement name: melting point

Worked examples follow.
c1ccc(CNc2nc3cc(-c4ccccc4)nnc3c3ccccc23)cc1: 207 to 209 °C
COC(=O)c1ccc(-c2cc(-c3cc4c(cc3C)CCCC4(C)C)[nH]n2)cc1: 92 to 93 °C
CSc1ccc(C2=C(c3cccs3)C(=O)C(C)(C)O2)cc1: 113 to 114 °C
CCCCOc1ccc(S(=O)(=O)N2CC(NC[C@H](O)COc3ccc(O)cc3)C2)cc1: 55 to 58 °C

Shift focus to the following entry.
State its melting point: `ON=Cc1cc(Br)ccc1OCc1ccccc1`
132 to 134 °C
